- System: serotonin-2 receptor
- protocol text: Anti-serotonin (5-HT) action: contraction of isolated superior mesenteric artery induced by 10^−5 M 5-HT
- cond: test drug 10^−8 M; contraction by 10^−5 M 5-HT taken as 100%; guinea pig superior mesenteric artery
reported metric: Anti 5-HT action (% of Control)

Each compound below has a reported value. Please supply its Anti 5-HT action (% of Control).
1. Cn1ccc2c1C(O)CCN(CCCN1CCN(c3ccc(F)cc3)CC1)C2=O (stereo not shown) [Compound No. 57]
2. Cn1ccc2c1C(=O)CCN(CCCN1CCC(c3noc4cc(F)ccc34)CC1)C2=O [Compound No. 50]

Outgoing:
["54.6 % of Control", "67.5 % of Control"]

Each compound below has a reported value. Please supply its Anti 5-HT action (% of Control).
1. Cn1ccc2c1C(O)CCN(CCCN1CCC(c3ccccc3)CC1)C2=O (stereo not shown) [Compound No. 73]
2. Cc1cn(C)c2c1C(=O)N(CCCN1CCN(c3ccc(F)cc3)CC1)CCC2O (stereo not shown) [Compound No. 59]

Outgoing:
90.7 % of Control
48.5 % of Control

----------
What Anti 5-HT action (% of Control) was measured for each of the following?
- System: serotonin-2 receptor
- protocol text: Anti-serotonin (5-HT) action: contraction of isolated superior mesenteric artery induced by 10^−5 M 5-HT
- cond: test drug 10^−7 M; contraction by 10^−5 M 5-HT taken as 100%; guinea pig superior mesenteric artery

Incoming: Please report the recorded Anti 5-HT action (% of Control) for Cn1cc2c(c1)/C(=N\O)CCN(CCCN1CCN(c3ccc(F)cc3)CC1)C2=O [Compound No. 55] .
Outgoing: 59.5 % of Control

Incoming: Please report the recorded Anti 5-HT action (% of Control) for Cn1ccc2c1C=CCN(CCCN1CCN(c3ccc(Cl)cc3)CC1)C2=O [Compound No. 79] .
Outgoing: 31.8 % of Control

Incoming: Please report the recorded Anti 5-HT action (% of Control) for Cn1ccc2c1C(=O)CCN(CCCN1CCC(c3noc4cc(F)ccc34)CC1)C2=O [Compound No. 50] .
Outgoing: 25.1 % of Control

Each compound below has a reported value. Please supply its Anti 5-HT action (% of Control).
1. O=C1c2ccn(-c3ccccc3)c2C(O)CCN1CCCN1CCN(c2ccc(F)cc2)CC1 (stereo not shown) [Compound No. 61]
2. Cn1ccc2c1C(=NO)CCN(CCCN1CCN(c3ccc(F)cc3)CC1)C2=O [Compound No. 53]
3. Cn1ccc2c1C1(CCN(CCCN3CCN(c4ccc(F)cc4)CC3)C2=O)SCCS1 [Compound No. 52]
4. Cn1ccc2c1CCCN(CCCN1CCN(c3ccc(F)cc3)CC1)C2=O [Compound No. 82]

Outgoing:
["74.3 % of Control", "87.1 % of Control", "20.9 % of Control", "8.4 % of Control"]

----------
- System: serotonin-2 receptor
- protocol text: Anti-serotonin (5-HT) action: contraction of isolated superior mesenteric artery induced by 10^−5 M 5-HT
- cond: test drug 10^−8 M; contraction by 10^−5 M 5-HT taken as 100%; guinea pig superior mesenteric artery
reported metric: Anti 5-HT action (% of Control)

Use these answered entries as a reference point.
Incoming: Please report the recorded Anti 5-HT action (% of Control) for Cn1ccc2c1C1(CCN(CCCN3CCN(c4ccc(F)cc4)CC3)C2=O)SCCS1 .
Outgoing: 75.5 % of Control

Incoming: Please report the recorded Anti 5-HT action (% of Control) for Cn1ccc2c1C=CCN(CCCN1CCN(c3ccc(Cl)cc3)CC1)C2=O .
Outgoing: 78.3 % of Control

Each compound below has a reported value. Please supply its Anti 5-HT action (% of Control).
1. Cn1ccc2c1[C@H](O)CCN(CCCN1CCN(c3ccc(F)cc3)CC1)C2=O
2. Cn1ccc2c1CCCN(CCCN1CCN(c3ccc(F)cc3)CC1)C2=O

Outgoing:
1. 82.0 % of Control
2. 35.2 % of Control

----------
- Test system: serotonin-2 receptor
- protocol text: Anti-serotonin (5-HT) action: contraction of isolated superior mesenteric artery induced by 10^−5 M 5-HT
- cond: test drug 10^−7 M; contraction by 10^−5 M 5-HT taken as 100%; guinea pig superior mesenteric artery
reported metric: Anti 5-HT action (% of Control)

Incoming: Please report the recorded Anti 5-HT action (% of Control) for Cn1ccc2c1C(O)CCN(CCN1CCN(c3ccc(F)cc3)CC1)C2=O (centres unmarked) .
Outgoing: 90.2 % of Control

Each compound below has a reported value. Please supply its Anti 5-HT action (% of Control).
1. Cn1ccc2c1C(O)CCN(CCCN1CCC(c3ccccc3)CC1)C2=O (centres unmarked)
2. COC1CCN(CCCN2CCN(c3ccc(Cl)cc3)CC2)C(=O)c2ccn(C)c21 (centres unmarked)
3. O=C1c2ccn(Cc3ccccc3)c2C(O)CCN1CCCN1CCN(c2ccc(F)cc2)CC1 (centres unmarked)
4. Cn1ccc2c1C(O)CCN(CCCN1CCC(C(=O)c3ccc(F)cc3)CC1)C2=O (centres unmarked)
5. Cn1ccc2c1C(O)CCN(CCCN1CCN(c3ccc(F)cc3)CC1)C2=O (centres unmarked)
6. Cn1ccc2c1[C@H](O)CCN(CCCN1CCN(c3ccc(F)cc3)CC1)C2=O

Outgoing:
["54.7 % of Control", "35.5 % of Control", "50.6 % of Control", "71.7 % of Control", "12.0 % of Control", "61.9 % of Control"]

Incoming: Please report the recorded Anti 5-HT action (% of Control) for Cc1cn(C)c2c1C(=O)N(CCCN1CCN(c3ccc(F)cc3)CC1)CCC2O (centres unmarked) .
Outgoing: 12.5 % of Control

----------
What Anti 5-HT action (% of Control) was measured for each of the following?
- Test system: serotonin-2 receptor
- protocol text: Anti-serotonin (5-HT) action: contraction of isolated superior mesenteric artery induced by 10^−5 M 5-HT
- cond: test drug 10^−6 M; contraction by 10^−5 M 5-HT taken as 100%; guinea pig superior mesenteric artery
- Experimental: (1) Anti-Serotonin (5-HT) Action A preparation cut in a helical form was suspended under resting tension of 0.3 g in a Magnus cylinder filled with the Tyrode solution which had been aerated with a gas mixture of 95% O2 and 5% CO2 and maintained at 37° C. Using an isometric transducer (“UL-10”, manufactured by SHINKOH K.K.) and a pressure preamplifier (“DSA-605A”, manufactured by SHINKOH K.K.), variations in tension were measured. […]

Use these answered entries as a reference point.
Incoming: Please report the recorded Anti 5-HT action (% of Control) for Cn1ccc2c1C(=NO)CCN(CCCN1CCN(c3ccc(F)cc3)CC1)C2=O [Compound No. 53] .
Outgoing: 48.2 % of Control

Incoming: Please report the recorded Anti 5-HT action (% of Control) for COC1CCN(CCCN2CCN(c3ccc(Cl)cc3)CC2)C(=O)c2ccn(C)c21 (stereo not shown) [Compound No. 76] .
Outgoing: 7.2 % of Control

Incoming: Please report the recorded Anti 5-HT action (% of Control) for Cn1cc2c(c1)/C(=N\O)CCN(CCCN1CCN(c3ccc(F)cc3)CC1)C2=O [Compound No. 55] .
Outgoing: 11.0 % of Control

Each molecule below has a reported value. Please supply its Anti 5-HT action (% of Control).
1. Cn1ccc2c1C(O)CCN(CCCN1CCN(c3ccc(F)cc3)CC1)C2=O (stereo not shown) [Compound No. 57]
2. Cn1ccc2c1C(O)CCN(CCN1CCN(c3ccc(F)cc3)CC1)C2=O (stereo not shown) [Compound No. 56]
3. O=C1c2ccn(Cc3ccccc3)c2C(O)CCN1CCCN1CCN(c2ccc(F)cc2)CC1 (stereo not shown) [Compound No. 62]
4. Cn1ccc2c1C(O)CCN(CCCN1CCC(C(=O)c3ccc(F)cc3)CC1)C2=O (stereo not shown) [Compound No. 75]
5. Cn1ccc2c1[C@H](O)CCN(CCCN1CCN(c3ccc(F)cc3)CC1)C2=O [Compound No. 84]
6. O=C1c2ccn(-c3ccccc3)c2C(O)CCN1CCCN1CCN(c2ccc(F)cc2)CC1 (stereo not shown) [Compound No. 61]
7. Cn1ccc2c1C(O)CCN(CCCN1CCC(c3ccccc3)CC1)C2=O (stereo not shown) [Compound No. 73]

Outgoing:
["7.5 % of Control", "47.9 % of Control", "11.1 % of Control", "25.2 % of Control", "11.9 % of Control", "37.3 % of Control", "14.9 % of Control"]

Source of measurements: patent US6713634B2
